# Test system: Human immunodeficiency virus 1
# testSummary: Resistance index, ratio of ID50 for reverse transcriptase Y181I mutant to IC50 for wild-type HIV1 reverse transcriptase
Outcome: 1 for Ratio of at least 50; -1 for anything lower.

# chemSmiles, discreteLabel
data = [
    ("O=C(CSc1nc(Cc2c(Cl)cccc2Cl)cc(=O)[nH]1)c1ccc(F)cc1", -1),
    ("COc1ccc(C(=O)CSc2nc(Cc3c(F)cccc3Cl)c(C)c(=O)[nH]2)cc1", 1),
    ("COc1ccc(CSc2nc(Cc3c(Cl)cccc3Cl)c(C)c(=O)[nH]2)cc1", 1),
    ("CCc1c(Cc2c(F)cccc2Cl)nc(SCC(=O)c2ccc(F)cc2)[nH]c1=O", -1),
    ("COc1ccc(C(=O)CSc2nc(Cc3c(Cl)cccc3Cl)c(C)c(=O)[nH]2)cc1", -1),
]
